- Assay Procedure: Lipophilicity, log D of the compound at pH 7.4
- Format: physicochemical
- Test Settings: buffer
logD values for the molecules below.
Recorded Metric: logD

                        structure_as_smiles  observed_measurement
0  Cc1cc2c(cc1C)-c1oc(CNc3ccc(F)cc3C)c(C)c1C(=O)C2=O                  3.31
1  Cc1cc2c(cc1C)-c1oc(C(=O)N3CCN(Cc4ccccc4)CC3)c(C)c1C(=O)C2=O                  4.82
2         Cc1cc2c(cc1C)-c1occ(C)c1C(=O)C2=O                  3.65
3  Cc1cc2c(cc1C)-c1oc(CN3CCN(c4ccc(F)cc4)CC3)c(C)c1C(=O)C2=O                  2.89
4  Cc1cc2c(cc1C)-c1oc(CNc3cccc(F)c3)c(C)c1C(=O)C2=O                  4.21
5  Cc1cc2c(cc1C)-c1oc(CNc3ccc(CN4CCOCC4)cc3)c(C)c1C(=O)C2=O                   3.1
6  Cc1cc2c(cc1C)-c1oc(CNc3ccc(F)cc3)c(C)c1C(=O)C2=O                  4.03
